Tested on: Arabidopsis seedlings
PROTOCOL_TEXT: Arabidopsis seedling growth / root elongation on MS medium with exogenous NAE 12:0
Format: in vivo
REPORTED_CONDITIONS: Arabidopsis thaliana, FAAH knockout seedlings, first value of the two knockout lines; read-out: EC50, rate of root elongation
pEC50: −log10 of the molar value.
TEST_READOUT: pEC50

>>> experimental_result("CCCCCCCCCCCC(=O)NCCO")
4.74
